B1: TPR 5TU (parent)
chain: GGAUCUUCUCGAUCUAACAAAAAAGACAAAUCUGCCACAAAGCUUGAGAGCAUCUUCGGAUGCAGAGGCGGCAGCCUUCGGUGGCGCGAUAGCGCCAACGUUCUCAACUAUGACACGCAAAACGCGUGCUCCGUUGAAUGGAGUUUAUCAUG

- Variants of: B1
- test_description: polymerase ribozyme fitness, log enrichment relative to wild type (log ratio); higher = more active; in vitro selection for triplet polymerase activity
This sample holds only a part of the variants without activity.
Label NOT MET if polymerase ribozyme fitness (log ratio) falls below -3; label MET in every other case.

Use these answered entries as a reference point.
Problem: Given G25U A29U G62U C85G A142C , state whether its polymerase ribozyme fitness (log ratio) is at least -3.
Result: NOT MET

Problem: Given A47C C51A C54U U61A C79A C93G C95A C132U C149U , state whether its polymerase ribozyme fitness (log ratio) is at least -3.
Result: NOT MET

Problem: Given A52C C76A , state whether its polymerase ribozyme fitness (log ratio) is at least -3.
Result: NOT MET

Problem: Given A22C G42U A49G C51U G92A U130G , state whether its polymerase ribozyme fitness (log ratio) is at least -3.
Result: NOT MET

Problem: Given G92A A98C G133C A142U , state whether its polymerase ribozyme fitness (log ratio) is at least -3.
Result: NOT MET

More entries:
Problem: Given C32U A37G G46U U77C G86C A115G A119U , state whether its polymerase ribozyme fitness (log ratio) is at least -3.
Result: NOT MET

Problem: Given U4C C10A U15G G62C A64U G80A C93A C116A U127G C131U G141U U145A , state whether its polymerase ribozyme fitness (log ratio) is at least -3.
Result: NOT MET

Problem: Given U4A C54A C95A A138C , state whether its polymerase ribozyme fitness (log ratio) is at least -3.
Result: NOT MET

Problem: Given C38U G71A G81A G83U C93A , state whether its polymerase ribozyme fitness (log ratio) is at least -3.
Result: NOT MET

Problem: Given A39U A47G U139G U151G , state whether its polymerase ribozyme fitness (log ratio) is at least -3.
Result: NOT MET

Problem: Given C14U U55A , state whether its polymerase ribozyme fitness (log ratio) is at least -3.
Result: MET

Problem: Given A21G A23G G128C , state whether its polymerase ribozyme fitness (log ratio) is at least -3.
Result: NOT MET

Problem: Given G48A C103A , state whether its polymerase ribozyme fitness (log ratio) is at least -3.
Result: MET

Problem: Given C76U C87U U102C , state whether its polymerase ribozyme fitness (log ratio) is at least -3.
Result: MET

Problem: Given C32G G59C A66G U102A , state whether its polymerase ribozyme fitness (log ratio) is at least -3.
Result: NOT MET

Problem: Given C87A U127G , state whether its polymerase ribozyme fitness (log ratio) is at least -3.
Result: NOT MET

Problem: Given U90A U130A , state whether its polymerase ribozyme fitness (log ratio) is at least -3.
Result: NOT MET

Problem: Given U15G G59A G83U C118G , state whether its polymerase ribozyme fitness (log ratio) is at least -3.
Result: MET

Problem: Given A97U U104G , state whether its polymerase ribozyme fitness (log ratio) is at least -3.
Result: MET

Problem: Given U15C A28G U146C , state whether its polymerase ribozyme fitness (log ratio) is at least -3.
Result: NOT MET
